test system: Human alphaherpesvirus 1; assay: Inhibitory concentration against TK-HSV type 1 strain B2006 in human embryonic skin muscle (ESM) fibroblast cell culture; type: functional
Assay endpoint: log10(MIC) (log10 of the value in µg/mL)
On a log10 scale: recorded MIC, unit µg/mL.

Challenge: Could you please provide reported log10(MIC) for Nc1nc2c(ncn2COC(CO)CO)c(=O)[nH]1 ? Thanks!
Response given: 0.30

Further cases:
Challenge: Identify log10(MIC) associated with the compound O=c1[nH]c(=O)n([C@H]2C[C@H](O)[C@@H](CO)O2)cc1I
Response given: 1.85

Challenge: Give the measured log10(MIC) for Nc1ncnc2c1ncn2[C@@H]1CO[C@H](CO)[C@@H](O)C1
Response given: 2.18

* * *

test system: Cytomegalovirus; experiment: Inhibitory concentration against CMV strain Davis in human embryonic lung (HEL) cell culture; type: functional; conditions: Human betaherpesvirus 5
Recorded MIC by entry
Supply the numeric figure in µg/mL, leaving out any unit text.

As a guide, the following entries are already answered.
Challenge: Would you please give the reported MIC of Nc1ccn(C2COC(CO)C(O)C2)c(=O)n1 (configuration not stated) with Cytomegalovirus?
Response given: 0.75

Challenge: # assay system Cytomegalovirus: give MIC of Nc1nc(O)c2ncn([C@@H]3CO[C@H](CO)[C@@H](O)C3)c2n1
Response given: 1.2

New cases:
Challenge: Fill in: MIC on Cytomegalovirus, entry Nc1nc2c(ncn2COC(CO)CO)c(=O)[nH]1 [GANCICLOVIR]
Response given: 6.2

* * *

tested on: Human alphaherpesvirus 1; assay: Inhibitory concentration against HSV type 1 strain F in human embryonic skin muscle (ESM) fibroblast cell culture; format: functional
Just a reminder that ties go to 0 (no): only MIC strictly below 0.4 µg/mL counts as 1 (yes).

Some entries whose results are on file:
Challenge: Regarding O=c1[nH]c(=O)n([C@H]2C[C@H](O)[C@@H](CO)O2)cc1I , kindly confirm whether its MIC is beneath 0.4 µg/mL.
Response given: 1 (yes)

Challenge: Decide: MIC of O=c1[nH]c(=O)n([C@H]2C[C@H](O)[C@@H](CO)O2)cc1/C=C/Br strictly below 0.4 µg/mL?
Response given: 1 (yes)

Challenge: I wonder whether O=c1[nH]c(=O)n(C2COC(CO)C(O)C2)cc1I (stereo unspecified) has MIC below 0.4 µg/mL. Can you tell?
Response given: 1 (yes)

Challenge: Please state whether MIC is below 0.4 µg/mL for Cc1cn(C2COC(CO)C(O)C2)c(=O)[nH]c1=O (stereo unspecified)
Response given: 0 (no)

Here is another molecule to look at.
Challenge: Could you please tell me whether MIC recorded for Nc1ccn(C2COC(CO)C(O)C2)c(=O)n1 (stereo unspecified) is less than 0.4 µg/mL?
Response given: 0 (no)

* * *

system: Human alphaherpesvirus 3; experiment: Inhibitory concentration against TK-VZV strain YS-R in human embryonic lung (HEL) cell culture; type: functional
Assay endpoint: MIC (µg/mL)
Express the result in µg/mL but write the number alone.

Reference set, count: 5
Challenge: Answer with reported MIC of Nc1nc(O)c2ncn([C@@H]3CO[C@H](CO)[C@@H](O)C3)c2n1
Response given: 2.8

Challenge: Return MIC for the following compound: Cc1cn(C2COC(CO)C(O)C2)c(=O)[nH]c1=O (configuration not stated)
Response given: 100

Challenge: Give reported MIC value for O=c1[nH]c(=O)n([C@H]2C[C@H](O)[C@@H](CO)O2)cc1I [IDOXURIDINE]
Response given: 4

Challenge: Please look at this compound and report its MIC: O=c1[nH]c(=O)n([C@H]2C[C@H](O)[C@@H](CO)O2)cc1/C=C/Br [BRIVUDINE]
Response given: 30

Challenge: Check the records and state MIC for Nc1nc2c(ncn2COC(CO)CO)c(=O)[nH]1 [GANCICLOVIR]
Response given: 0.9

Now look at this one.
Challenge: Answer with the recorded MIC of Nc1ccn(C2COC(CO)C(O)C2)c(=O)n1 (configuration not stated) only.
Response given: 0.64

* * *

system: MOLT-4; assay: Inhibitory concentration required to reduce the growth of human MOLT-4 cells by 50%; type: functional, cell-based
# maps each entry to its IC50

Consider the following illustrative entries.
Challenge: Please report IC50 for the following compound: Cc1cn(C2COC(CO)C(O)C2)c(=O)[nH]c1=O (stereo not given)
Response given: > 100 µg/mL

Challenge: Tell me its IC50 given Nc1nc(O)c2ncn([C@@H]3CO[C@H](CO)[C@@H](O)C3)c2n1 as the entry.
Response given: 14 µg/mL

Challenge: Look up and state reported IC50 for Nc1ncnc2c1ncn2[C@@H]1CO[C@H](CO)[C@@H](O)C1
Response given: > 100 µg/mL

Challenge: Tell us which IC50 value is on record for Nc1ccn(C2COC(CO)C(O)C2)c(=O)n1 (stereo not given)
Response given: 0.87 µg/mL

---
Challenge: Recall and state the measured IC50 for O=c1[nH]c(=O)n(C2COC(CO)C(O)C2)cc1I (stereo not given) .
Response given: > 100 µg/mL

* * *

test system: Human alphaherpesvirus 2; test: Inhibitory concentration against HSV type 2 strain Lyons in human embryonic skin muscle (ESM) fibroblast cell culture; format: functional
Recorded MIC by entry
Express it in µg/mL; write the number only.

# annotated cases, reported MIC shown
Challenge: For Cc1cn(C2COC(CO)C(O)C2)c(=O)[nH]c1=O (centres undefined) , write its MIC.
Response given: 20

Challenge: Give a short answer stating reported MIC for Nc1nc2c(ncn2COCCO)c(=O)[nH]1 [ACYCLOVIR] .
Response given: 0.7

Challenge: Provide measured MIC value, entry: O=c1[nH]c(=O)n([C@H]2C[C@H](O)[C@@H](CO)O2)cc1I [IDOXURIDINE]
Response given: 0.2

Challenge: Note MIC for the molecule shown: Nc1nc2c(ncn2COC(CO)CO)c(=O)[nH]1 [GANCICLOVIR]
Response given: 0.02

Challenge: Retrieve MIC measured for Nc1nc(O)c2ncn([C@@H]3CO[C@H](CO)[C@@H](O)C3)c2n1 and print it.
Response given: 0.01

Further cases:
Challenge: Note MIC for the molecule shown: Nc1ccn(C2COC(CO)C(O)C2)c(=O)n1 (centres undefined)
Response given: 0.02

Challenge: Provide MIC value for the following molecule: O=c1[nH]c(=O)n(C2COC(CO)C(O)C2)cc1I (centres undefined)
Response given: 0.07

Challenge: Fill in MIC for record Nc1ncnc2c1ncn2[C@@H]1CO[C@H](CO)[C@@H](O)C1
Response given: 1

Challenge: Supply recorded MIC for O=c1[nH]c(=O)n([C@H]2C[C@H](O)[C@@H](CO)O2)cc1/C=C/Br [BRIVUDINE] here.
Response given: 70

* * *

test system: Human alphaherpesvirus 1; experiment: Inhibitory concentration against HSV type 1 strain F in human embryonic skin muscle (ESM) fibroblast cell culture; assay type: functional
Assay endpoint: MIC (µg/mL)
Number only, in µg/mL; omit the unit.

Guide cases for MIC, answers given:
Challenge: Recall and state the measured MIC for Nc1ncnc2c1ncn2[C@@H]1CO[C@H](CO)[C@@H](O)C1 .
Response given: 4

Challenge: Specify MIC for Nc1nc(O)c2ncn([C@@H]3CO[C@H](CO)[C@@H](O)C3)c2n1 and stop.
Response given: 0.2

Would you kindly look at the next entry?
Challenge: Give recorded MIC. Nc1nc2c(ncn2COC(CO)CO)c(=O)[nH]1
Response given: 0.007

* * *

Listing of entries alongside the reported MIC.
tested on: Human alphaherpesvirus 1; assay: Inhibitory concentration against TK-HSV type 1 strain B2006 in human embryonic skin muscle (ESM) fibroblast cell culture; type: functional
Field: numeric (mg/L). Do not append units.

Solved entries:
Challenge: Give the reported value of MIC for this record: Nc1nc2c(ncn2COCCO)c(=O)[nH]1 [ACYCLOVIR]
Response given: 70

Challenge: Give the reported MIC for this molecule. Nc1ccn(C2COC(CO)C(O)C2)c(=O)n1 (stereo unspecified)
Response given: 4

***
Challenge: Answer with the recorded MIC of Nc1nc(O)c2ncn([C@@H]3CO[C@H](CO)[C@@H](O)C3)c2n1 only.
Response given: 20

* * *

Measured MIC, listed per entry for reference.
tested on: Cytomegalovirus; assay: Inhibitory concentration against CMV strain Davis in human embryonic lung (HEL) cell culture; format: functional; conditions: Human betaherpesvirus 5

Examples with answers:
Challenge: Identify measured MIC associated with O=c1[nH]c(=O)n([C@H]2C[C@H](O)[C@@H](CO)O2)cc1/C=C/Br [BRIVUDINE]
Response given: > 100 µg/mL

Challenge: Specify measured MIC for O=c1[nH]c(=O)n(C2COC(CO)C(O)C2)cc1I (centres undefined) .
Response given: > 10 µg/mL

Challenge: Supply recorded MIC for Nc1ncnc2c1ncn2[C@@H]1CO[C@H](CO)[C@@H](O)C1 here.
Response given: > 10 µg/mL

Could you now look at the following compound, please?
Challenge: State, in one line, measured MIC of Cc1cn(C2COC(CO)C(O)C2)c(=O)[nH]c1=O (centres undefined)
Response given: > 10 µg/mL
